# Tested on: HOP-92 NSCLC
# assay text: NCI-60 one-dose screen, 48 h (100 = growth as untreated, 0 = no growth, -100 = all killed)
# experimental context: 10 µM unless noted
The panel holds about 83,000 compounds, 20% with a hit somewhere; the sample as a whole holds those more often.
This section presents compounds with their documented growth values.
A number alone suffices; assume %.

Some entries whose results are on file:
compound	unit of measurement	growth
COC(=O)Nc1nc2ccc(C(=O)c3cccc(I)c3)cc2[nH]1	%	51.5
Cn1c2c(Cl)c(Cl)ccc2c2cc(N)[nH]c(=O)c21	%	29.9
CC(=O)OCC(=O)C1(O)C(C)CC2C3C=C(C)C4=Cc5c(cnn5-c5ccccc5)CC4(C)C3C(O)CC21C (stereo unspecified)	%	-0.484
COc1cc(NCC(C)(O)CN(CC(C)C)CC(C)C)c2nc(C)ccc2c1 (stereo unspecified)	%	79.8
O=C(Nc1ccc2ncnc(Nc3ccc(Oc4cccc(F)c4)c(Cl)c3)c2c1)c1ccc(CNCCO)cc1	%	62.5
COc1ccc2nc(N=Nc3c(O)ccc4ccccc34)sc2c1	%	60.9

Problem: Please look up its growth: COc1cc(/C=C/C(=O)c2ccc(Nc3ncnc4ccccc34)cc2)cc(OC)c1
Result: 87.3

Problem: Same read-out for O=CNc1cc(Cl)cc(Cl)c1 ?
Result: 106

Problem: Same read-out for COc1ccc(C2CC(n3nnnc3-c3ccccc3)=NN2)cc1 (stereo unspecified) ?
Result: 80.1

Problem: Same read-out for COc1cc(-c2cc(=O)oc3cc(O)ccc23)c(OC)c2c1OCO2 ?
Result: 79

Problem: Same read-out for COc1ccc(/C=C/c2n[nH]c3ccc(N4CCOC4=O)cc23)cc1 ?
Result: -8.15

###

# Test system: SW-620 colon
# assay text: NCI-60 one-dose screen, 48 h (100 = growth as untreated, 0 = no growth, -100 = all killed)
# experimental context: 10 µM unless noted
Compounds without any hit were thinned out: in the full panel of roughly 83,000, 20% have a hit.
experimental endpoint: growth (%)
A number alone suffices; assume %.

test smiles	unit of measurement	growth
C[C@H]1[C@H](C)CC[C@]2(CO)CC[C@]3(C)C(=CC[C@@H]4[C@@]5(C)Cc6c([nH]c7ccccc67)C(C)(C)[C@@H]5CC[C@]43C)[C@H]12	%	96.2
C=CCn1c(SCC(=O)Nc2ccc(C(=O)/C=C/c3cc(OC)c(OC)c(OC)c3)cc2)nnc1-c1cc(OC)c(OC)c(OC)c1	%	-9.49
CCNC(=S)NNC(=O)c1cc2ccc1CCc1ccc(cc1)CC2	%	101

Problem: Please look up its growth: Cc1c([N+](=O)[O-])cc(C(C)(C)C)cc1[N+](=O)[O-]
Result: 98.9

Problem: Same read-out for CN(C)Cc1c(-c2ccccc2)[nH]c2ccccc12 ?
Result: 99.6

Problem: Same read-out for C=C1C(=O)O[C@H]2[C@H]1CC/C(CNC(=O)/C=C/c1ccccc1F)=C\CC[C@@]1(C)O[C@@H]21 ?
Result: -54.3

Problem: Same read-out for COc1nccnn1 ?
Result: 101

Problem: Same read-out for CC(=O)[C@@H]1CC[C@]2(C(=O)n3ccnc3)CC[C@]3(C)[C@H](CC[C@@H]4[C@@]5(C)Cc6c([nH]c7ccccc67)C(C)(C)[C@@H]5CC[C@]43C)[C@@H]12 ?
Result: 90.8
